Test system: CYP116B305
protocolDetails: Substrate binding by UV-visible difference spectroscopy (KD, heme spin-state shift)
Parameters: species or system Geminicoccaceae
experimentalContext: low-spin to high-spin heme shift on substrate binding
Give Spin-state shift (%) for every item shown.
Kindly answer with a numeric value in %, unit omitted.

So what does the record say about Spin-state shift (%) for O=C(O)CCc1ccccc1O [HPPA, 3-(2-hydroxyphenyl)propionic acid] ?
90

So what does the record say about Spin-state shift (%) for O=C(O)/C=C/c1ccccc1 [trans-Cinnamic acid] ?
13

So what does the record say about Spin-state shift (%) for O=C(O)c1ccccc1O ?
25

So what does the record say about Spin-state shift (%) for O=C(O)Cc1ccccc1 ?
34

So what does the record say about Spin-state shift (%) for COc1ccc(C(C)=O)cc1 ?
26

So what does the record say about Spin-state shift (%) for O=C(O)Cc1ccc(O)cc1 [4-Hydroxyphenylacetic acid] ?
17

----------
experimentalSystem: CYP116B305
protocolDetails: Substrate binding by UV-visible difference spectroscopy (KD, heme spin-state shift)
experimentalContext: difference spectroscopy, CYP116B305 2–4 µM, substrate 0–100 µM
property: pKd
To interpret pKd, take it as minus log10 of a concentration measured in moles per litre.

So what does the record say about pKd for O=C(O)Cc1ccc(O)cc1 [4-Hydroxyphenylacetic acid] ?
4.19

So what does the record say about pKd for COc1ccc(C(C)=O)cc1 ?
4.14

So what does the record say about pKd for O=C(O)/C=C/c1ccccc1 [trans-Cinnamic acid] ?
4.21

So what does the record say about pKd for O=C(O)c1ccccc1O ?
4.37

So what does the record say about pKd for O=C(O)CCc1ccccc1O [HPPA, 3-(2-hydroxyphenyl)propionic acid] ?
6.40

So what does the record say about pKd for O=C(O)Cc1ccccc1 ?
4.41
